Below is a list of entries, each paired with its recorded melting point value.

The following compounds have reported results that may help.
>  <smi>
CC(C)CNC(=O)c1ccc(-c2noc(C(F)(F)F)n2)cc1F

>  <melting point>
126.6 to 128.3 °C

$$$$
>  <smi>
CN(C(=O)c1ccc(-c2noc(C(F)(F)F)n2)cc1)c1ncn[nH]1

>  <melting point>
125 to 128 °C

$$$$

Ask | What does the data say about its melting point? Entry: O=C(NCc1cccc(F)c1)c1ccc(-c2noc(C(F)(F)F)n2)cc1F
Reply | 129.4 to 130.9 °C

* * *

parameter_measured: melting point

The following compounds have reported results that may help.
>  <compound>
CC(NC(=O)c1ccc(-c2noc(C(F)(F)F)n2)cc1F)c1ccccc1 (centres unmarked) [Compound 4b.3]

>  <melting point>
121.1 to 123.7 °C

$$$$
>  <compound>
Cc1ccccc1CNC(=O)c1ccc(-c2noc(C(F)(F)F)n2)cc1 [Compound 4a.4]

>  <melting point>
135 to 141 °C

$$$$
>  <compound>
CC(COC(F)F)NC(=O)c1ccc(-c2noc(C(F)(F)F)n2)cc1 (centres unmarked) [Compound 3a.43]

>  <melting point>
128 to 130 °C

$$$$

Ask | What does the data say about its melting point? Entry: COCCNC(=O)c1ccc(-c2noc(C(F)(F)F)n2)cc1F [Compound 3b.6]
Reply | 87.6 to 89 °C

Ask | What does the data say about its melting point? Entry: C#CCNC(=O)c1ccc(-c2noc(C(F)(F)F)n2)cc1 [Compound 3a.2]
Reply | 168.5 to 170 °C
